Each entry below carries its reported protein stability index.
B1: TRIM9 (parent)
chain: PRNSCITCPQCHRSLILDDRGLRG

Variants of: B1
Assay: protein stability index of a GFP-peptide fusion (GPS, HEK-293T) (PSI 1-6); higher = more stable;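 note: lentivirally expressed fusions sorted by FACS into six bins by GFP to DsRed ratio, PSI derived from sequencing read proportions per bin multiplied by bin number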
Conditions: c terminus: a fixed tail appended
Kindly provide the number alone.

Variant Code	Value Measured
R13L	1.57
T7W	2
D19C	2.6
R23L	2.48

--- query ---
Incoming: Answer with reported protein stability index of P9W
Outgoing: 3.5
